# pKd per entry
target: CRBN truncate (318-426) (Homo sapiens (Human)); experiment: Measurement of molecular interactions using surface plasmon resonance (SPR), Biacore T200; conditions: 25° C., immobilized CRBN truncate, upper limit of measurement 200 μM
Sequence (Q96SW2 318-426): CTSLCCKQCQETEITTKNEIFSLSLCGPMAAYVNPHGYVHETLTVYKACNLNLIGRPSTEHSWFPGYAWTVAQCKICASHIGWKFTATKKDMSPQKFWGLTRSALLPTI
pKd: −log10 of the molar value.

A selection of reference data follows.
molecule="COC(=O)c1ccc(=O)n(C2CCCC(=O)NC2=O)c1 (stereo not shown) [Example 26]" subject_of_test="CRBN truncate (318-426) (Homo sapiens (Human))" experimental_value="≤ 4.00"
molecule="CC(C)(C)OC(=O)c1cccc(N2CCC3(CCCC(=O)NC3=O)C2)n1 (stereo not shown) [Example 92]" subject_of_test="CRBN truncate (318-426) (Homo sapiens (Human))" experimental_value="≤ 4.00"
molecule="Cc1sc2c(c1C)C(c1ccc(Cl)cc1)=N[C@@H](CC(=O)NCCCCCCc1cccc(C(=O)N3CCC4(CCCC(=O)NC4=O)C3)c1)c1nnc(C)n1-2 (stereo partly shown) [Example 308]" subject_of_test="CRBN truncate (318-426) (Homo sapiens (Human))" experimental_value="≤ 4.00"

Now consider a different molecule.
What value of pKd on CRBN truncate (318-426) (Homo sapiens (Human)) does CC(=O)N1CCc2nc(N3CCC4(CCCC(=O)NC4=O)C3)ncc2C1 (stereo not shown) [Example 178] have?
> 4.30
